tested system: E. coli DNA gyrase (Escherichia coli, UniProt P0AES4+P0AES6)
procedure summary: biochemical
test conditions: gel based supercoiling assay; read-out: E. coli DNA Gyrase IC50
Answer each item with its documented IC50.
Answers are plain numbers, in µM.

Look up IC50 for the entries below, preserving their order.
1. Cn1c(=O)ccc2ccc(F)c(OCCNC[C@@H]3CN(c4cnc5c(n4)NC(=O)CO5)C(=O)O3)c21 [Compound 3]
2. Cc1cc(=O)n(C)c2c(OCCNC[C@H]3CN(c4cnc5c(n4)NC(=O)CO5)C(=O)O3)c(F)ccc12 [Compound 5]
3. CC(COc1c(F)ccc2ccc(=O)n(C)c12)NC[C@H]1CN(c2cnc3c(n2)NC(=O)CO3)C(=O)O1 (some centres unmarked) [Compound 4]
4. Cc1nc2ccc(F)c(OCCNC[C@H]3CN(c4cnc5c(n4)NC(=O)CO5)C(=O)O3)c2n(C)c1=O [Compound 9]

Result ::
0.011
0.033
0.03
0.04

# compound Cn1c(=O)ccc2ncc(Cl)c(OCCNC[C@H]3CN(c4cnc5c(n4)NC(=O)CO5)C(=O)O3)c21 [Compound 6] ; its IC50 = 6.33

---

procedure summary: In vivo pharmacokinetic (PK) studies in rats
Set-up: species or system Sprague-Dawley (SD) rats
test conditions: male, Sprague-Dawley, rat, plasma; 30 mg/kg, PO
endpoint: half-life (h)
Numbers only, in h.

Entry under test: `Cn1c(=O)ccc2ccc(F)c(OCCNC[C@H]3CN(c4cnc5c(n4)NC(=O)CO5)C(=O)O3)c21` . Its half-life was 1.7

---

procedure summary: In vivo pharmacokinetic (PK) studies in rats
Parameters: species or system Sprague-Dawley (SD) rats
test conditions: male, Sprague-Dawley, rat, plasma, iv, 30 mg/kg, IV; read-out: Vd
endpoint: Vd (L/kg)
Give bare numbers, in L/kg.

The compound `Cn1c(=O)ccc2ccc(F)c(OCCNC[C@H]3CN(c4cnc5c(n4)NC(=O)CO5)C(=O)O3)c21` showed Vd equal to 4.94

---

procedure summary: In vivo pharmacokinetic (PK) studies in rats
Set-up: species or system Sprague-Dawley (SD) rats
test conditions: male, Sprague-Dawley, rat, plasma; 30 mg/kg, PO
endpoint: AUC(0-inf)
Don't forget the unit after the number, please.

Data point: `Cn1c(=O)ccc2ccc(F)c(OCCNC[C@H]3CN(c4cnc5c(n4)NC(=O)CO5)C(=O)O3)c21` ; AUC(0-inf) = 7540 ng·h/mL

---

procedure summary: In vivo pharmacokinetic (PK) studies in rats
Parameters: species or system Sprague-Dawley (SD) rats
test conditions: male, Sprague-Dawley, rat, plasma; 30 mg/kg, IV
endpoint: AUC(0-t)

The recorded AUC(0-t) for Cn1c(=O)ccc2ccc(F)c(OCCNC[C@H]3CN(c4cnc5c(n4)NC(=O)CO5)C(=O)O3)c21 [Compound 2] is 21800 ng·h/mL

---

procedure summary: In vivo pharmacokinetic (PK) studies in rats
Parameters: species or system Sprague-Dawley (SD) rats
test conditions: male, Sprague-Dawley, rat, plasma, iv, 30 mg/kg, IV; read-out: Vss
endpoint: Vd (L/kg)
Numbers only, in L/kg.

`Cn1c(=O)ccc2ccc(F)c(OCCNC[C@H]3CN(c4cnc5c(n4)NC(=O)CO5)C(=O)O3)c21` yielded Vd of 0.62

---

procedure summary: In vivo pharmacokinetic (PK) studies in rats
Design: species or system Sprague-Dawley (SD) rats
test conditions: male, Sprague-Dawley, rat, plasma; 5 mg/kg, IV
endpoint: Tmax

So for `Cn1c(=O)ccc2ccc(F)c(OCCNC[C@H]3CN(c4cnc5c(n4)NC(=O)CO5)C(=O)O3)c21` , the logged Tmax turned out to be 45.6 min
